Test system: Medicago truncatula
Assay: Phytotoxicity against Medicago truncatula assessed as area of lesions at 1 mg/ml at 20 degC for 4 days
Type: organism-based
Details: in vivo, 96 h
quantity_kind: Activity

CCC[C@H]1OC(=O)[C@@H](O)CC/C=C/[C@H](O)[C@@H]1O	Non-toxic
CCC[C@H]1OC(=O)[C@@H](O)CC/C=C/[C@@H](O)[C@@H]1O (relative stereo) [Pinolide]	Non-toxic
C/C=C/C=C/C(=O)O[C@H]1CC/C=C/[C@H](O)[C@H](O)[C@@H](CCC)OC1=O [PINOLIDOXIN]	49.2 mm2
CCC[C@H]1OC(=O)[C@H](O)CC/C=C/[C@H](O)[C@@H]1O [HERBARUMIN II]	Non-toxic

* * *

Tested on: Pisum fulvum
Experiment: Phytotoxicity against Pisum fulvum assessed as area of lesions at 1 mg/ml at 20 degC for 4 days
Assay type: organism-based
Conditions: lathyrus fulvus, in vivo, 96 h
quantity_kind: Activity

CCC[C@H]1OC(=O)[C@@H](O)CC/C=C/[C@H](O)[C@@H]1O	Non-toxic
C/C=C/C=C/C(=O)O[C@H]1CC/C=C/[C@H](O)[C@H](O)[C@@H](CCC)OC1=O [PINOLIDOXIN]	21.5 mm2
CCC[C@H]1OC(=O)[C@H](O)CC/C=C/[C@H](O)[C@@H]1O [HERBARUMIN II]	Non-toxic
CCC[C@H]1OC(=O)[C@@H](O)CC/C=C/[C@@H](O)[C@@H]1O (relative stereo) [Pinolide]	Non-toxic

* * *

Test system: Sonchus arvensis
Assay: Phytotoxicity against Sonchus arvensis (field sow-thistle) assessed as area of lesions at 1 mg/ml at 20 degC for 4 days
Type: functional
Calls of active or inactive are those of the source. The calls are words filed in the database; no cut-off is given here.
quantity_kind: Activity

CCC[C@H]1OC(=O)[C@@H](O)CC/C=C/[C@@H](O)[C@@H]1O (relative stereo) [Pinolide]	inactive
CCC[C@H]1OC(=O)[C@@H](O)CC/C=C/[C@H](O)[C@@H]1O	inactive
CCC[C@H]1OC(=O)[C@H](O)CC/C=C/[C@H](O)[C@@H]1O [HERBARUMIN II]	inactive
C/C=C/C=C/C(=O)O[C@H]1CC/C=C/[C@H](O)[C@H](O)[C@@H](CCC)OC1=O [PINOLIDOXIN]	23.6 mm2

* * *

System: Cicer arietinum
Assay: Phytotoxicity against Cicer arietinum assessed as area of lesions at 1 mg/ml at 20 degC for 4 days
Type: organism-based
Settings: in vivo, 96 h
quantity_kind: Activity

CCC[C@H]1OC(=O)[C@@H](O)CC/C=C/[C@@H](O)[C@@H]1O (relative stereo) [Pinolide]	Non-toxic
C/C=C/C=C/C(=O)O[C@H]1CC/C=C/[C@H](O)[C@H](O)[C@@H](CCC)OC1=O [PINOLIDOXIN]	9.1 mm2
CCC[C@H]1OC(=O)[C@@H](O)CC/C=C/[C@H](O)[C@@H]1O	Non-toxic
CCC[C@H]1OC(=O)[C@H](O)CC/C=C/[C@H](O)[C@@H]1O [HERBARUMIN II]	Non-toxic
